Recorded pIC50 by entry
Target Entity: Human Cot (Homo sapiens (Human), UniProt P41279)
Sequence (P41279 30-397): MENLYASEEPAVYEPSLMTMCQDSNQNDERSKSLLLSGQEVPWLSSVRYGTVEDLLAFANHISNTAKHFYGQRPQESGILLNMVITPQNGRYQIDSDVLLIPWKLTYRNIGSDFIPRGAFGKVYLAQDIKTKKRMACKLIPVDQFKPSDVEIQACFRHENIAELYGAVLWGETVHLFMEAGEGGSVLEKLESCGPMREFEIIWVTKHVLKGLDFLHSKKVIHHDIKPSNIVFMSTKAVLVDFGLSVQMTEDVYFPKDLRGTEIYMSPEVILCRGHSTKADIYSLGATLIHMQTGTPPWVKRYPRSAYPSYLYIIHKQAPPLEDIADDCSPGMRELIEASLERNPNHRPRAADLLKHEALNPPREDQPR
Assay Method Text: High Throughput Cot Biochemical Assay
Conditions: IC50 HTRF, Cot HTRF (TR-FRET) biochemical assay
pIC50: −log10 of the molar value.
Readout Kind: pIC50

[
  {
    "Chemical Smiles": "Cc1nc(F)ccc1[C@H](Nc1cc(C#N)c2ncc(C#N)c(NCC(C)(C)C)c2c1)c1cn(C2(C(N)=O)CC2)nn1",
    "Readout Kind": "pIC50",
    "Measured Value": 9.00
  },
  {
    "Chemical Smiles": "CC(C)n1cc([C@@H](Nc2cc(Cl)c3ncc(C#N)c(Nc4ccc(F)c(Cl)c4)c3c2)c2cscn2)nn1",
    "Readout Kind": "pIC50",
    "Measured Value": 8.30
  },
  {
    "Chemical Smiles": "Cc1ncsc1[C@H](Nc1cc(Cl)c2ncc(C#N)c(Nc3cccc(Cl)c3F)c2c1)c1cn(C2CCN(C(C)(C)C)CC2)nn1",
    "Readout Kind": "pIC50",
    "Measured Value": 8.40
  },
  {
    "Chemical Smiles": "[2H][C@](Nc1cc(Cl)c2ncc(C#N)c(NCC(C)(C)C)c2c1)(c1ccc(F)nc1)c1cn(CC(=O)NS(C)(=O)=O)nn1",
    "Readout Kind": "pIC50",
    "Measured Value": 8.15
  },
  {
    "Chemical Smiles": "CC(C)(C)CNc1c(C#N)cnc2c(C#N)cc(N[C@H](c3cn(C4(C(F)(F)F)CC4)nn3)c3cccn4nccc34)cc12",
    "Readout Kind": "pIC50",
    "Measured Value": 8.40
  },
  {
    "Chemical Smiles": "CC(C)(C)CNc1c(C#N)cnc2c(Cl)cc(N[C@H](c3cn(C4CC4)nn3)c3ccc(F)nc3Cl)cc12",
    "Readout Kind": "pIC50",
    "Measured Value": 8.30
  },
  {
    "Chemical Smiles": "CC(C)(C)N1CCC(n2cc([C@@H](Nc3cc(Cl)c4ncc(C#N)c(Nc5ccc(F)c(Cl)c5)c4c3)c3csc4ccc(Cl)cc34)nn2)CC1",
    "Readout Kind": "pIC50",
    "Measured Value": 7.39
  },
  {
    "Chemical Smiles": "CCN1CCC(n2cc([C@@H](Nc3cc(Cl)c4ncc(C#N)c(Nc5ccc(F)c(Cl)c5)c4c3)c3cc(C#N)cs3)nn2)CC1",
    "Readout Kind": "pIC50",
    "Measured Value": 8.70
  },
  {
    "Chemical Smiles": "CC(C)(C)ONc1c(C#N)cnc2c(I)cc(N[C@H](c3cn(C4CC4)nn3)c3cccc4ncsc34)cc12",
    "Readout Kind": "pIC50",
    "Measured Value": 6.50
  },
  {
    "Chemical Smiles": "CCc1ncccc1[C@H](Nc1cc(Cl)c2ncc(C#N)c(NCC(C)(C)C)c2c1)c1cn(C2(C(F)(F)F)CC2)nn1",
    "Readout Kind": "pIC50",
    "Measured Value": 8.30
  },
  {
    "Chemical Smiles": "Cc1c([C@H](Nc2cc(Cl)c3ncc(C#N)c(NCC(C)(C)C)c3c2)c2cn(C3(C(F)F)CC3)nn2)ccc(=O)n1C",
    "Readout Kind": "pIC50",
    "Measured Value": 7.96
  },
  {
    "Chemical Smiles": "N#Cc1cnc2c(Cl)cc(N[C@H](c3c[nH]nn3)c3ccc(F)nc3F)cc2c1Nc1cnc(F)c(F)c1",
    "Readout Kind": "pIC50",
    "Measured Value": 7.59
  },
  {
    "Chemical Smiles": "N#CCC[C@@H](Nc1c(C#N)cnc2c(Cl)cc(N[C@H](c3cn(C4CC4)nn3)c3cccc4ncsc34)cc12)c1ccccc1",
    "Readout Kind": "pIC50",
    "Measured Value": 8.70
  }
]
